meta.source: patent US20030068675

# target_under_test: ZFP SBS#940 (synthetic)
# Sequence (chain, as listed by the source): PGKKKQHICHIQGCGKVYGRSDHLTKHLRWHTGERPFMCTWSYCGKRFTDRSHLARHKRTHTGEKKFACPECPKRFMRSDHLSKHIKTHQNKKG
# assay_text: EMSA
# assay_setup: tags: MBP fusion

binder | Kd / nM
GGGGGCTGG (dsDNA) DNA 1: GGGGGCTGG DNA 2: CCAGCCCCC | 1.5
